- Tested on: P. aeruginosa ATCC 19660
- Format: cell-based, Pseudomonas aeruginosa
- experimental-conditions: ATCC 19660, pH 7.4
Where no end group is shown, it is not given here.
Measured MIC accompanies every entry in the list below.

{"substance": "FIHHIIGWISHGVRAIHRAIHG-NH2 [cod Pis 1, reference compound]", "MIC": ">19.78 µg/mL"}
{"substance": "FIHHIIGGLFSAGKAIHRLIRRRRR-NH2 [TP4]", "MIC": "0.52 µg/mL"}
{"substance": "GFIFHIIKGLFHAGKMIHGLV-NH2 [Epi-1, epinecidin-1, reference compound]", "MIC": "10.70 µg/mL"}
{"substance": "QLQGKQVSGEVVQKVLQELIQSVAKP-NH2 [TP5]", "MIC": ">17.64 µg/mL"}
{"substance": "FDWDSVLKGVEGFVRGYF-NH2 [TP1]", "MIC": ">23.57 µg/mL"}
{"substance": "GECIWDAIFHGAKHFLHRLVNP-NH2 [TP2]", "MIC": ">19.52 µg/mL"}
{"substance": "FIHHIIGGLFSVGKHIHSLIHGH-NH2 [TP3]", "MIC": ">19.55 µg/mL"}

###

- Tested on: S. agalactiae BCRC 10787
- Assay type: cell-based, Streptococcus agalactiae
- experimental-conditions: BCRC 10787, pH 7.4
Where no end group is shown, it is not given here.
measure: MIC (µg/mL)

{"substance": "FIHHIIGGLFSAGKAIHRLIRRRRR-NH2 [TP4]", "measure": "MIC", "value-prefix": "=", "readout-value": 0.13}
{"substance": "FDWDSVLKGVEGFVRGYF-NH2 [TP1]", "measure": "MIC", "value-prefix": ">", "readout-value": 23.57}
{"substance": "FIHHIIGWISHGVRAIHRAIHG-NH2 [cod Pis 1, reference compound]", "measure": "MIC", "value-prefix": "=", "readout-value": 0.31}
{"substance": "QLQGKQVSGEVVQKVLQELIQSVAKP-NH2 [TP5]", "measure": "MIC", "value-prefix": ">", "readout-value": 17.64}
{"substance": "FIHHIIGGLFSVGKHIHSLIHGH-NH2 [TP3]", "measure": "MIC", "value-prefix": "=", "readout-value": 0.61}
{"substance": "GFIFHIIKGLFHAGKMIHGLV-NH2 [Epi-1, epinecidin-1, reference compound]", "measure": "MIC", "value-prefix": "=", "readout-value": 0.33}
{"substance": "GECIWDAIFHGAKHFLHRLVNP-NH2 [TP2]", "measure": "MIC", "value-prefix": ">", "readout-value": 19.52}

###

Measured MIC accompanies every entry in the list below.
- System: S. agalactiae 819
- Format: cell-based, Streptococcus agalactiae
- experimental-conditions: 819, pH 7.4
Where no end group is shown, it is not given here.

{"substance": "GFIFHIIKGLFHAGKMIHGLV-NH2 [Epi-1, epinecidin-1, reference compound]", "units-text": "µg/mL", "value-prefix": ">", "MIC": 21.41}
{"substance": "GECIWDAIFHGAKHFLHRLVNP-NH2 [TP2]", "units-text": "µg/mL", "value-prefix": ">", "MIC": 19.52}
{"substance": "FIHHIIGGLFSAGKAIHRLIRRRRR-NH2 [TP4]", "units-text": "µg/mL", "value-prefix": "=", "MIC": 2.10}
{"substance": "FIHHIIGGLFSVGKHIHSLIHGH-NH2 [TP3]", "units-text": "µg/mL", "value-prefix": "=", "MIC": 9.78}
{"substance": "QLQGKQVSGEVVQKVLQELIQSVAKP-NH2 [TP5]", "units-text": "µg/mL", "value-prefix": ">", "MIC": 17.64}
{"substance": "FDWDSVLKGVEGFVRGYF-NH2 [TP1]", "units-text": "µg/mL", "value-prefix": ">", "MIC": 23.57}
{"substance": "FIHHIIGWISHGVRAIHRAIHG-NH2 [cod Pis 1, reference compound]", "units-text": "µg/mL", "value-prefix": "=", "MIC": 9.89}
